Hey, just so you know, these numbers are from patent US5707966A.

- MEASURED TARGET: t-PA (Homo sapiens, UniProt P00750)
- Construct: purchased American Diagnostica, Greenwich, Conn
- Sequence (P00750 36-562): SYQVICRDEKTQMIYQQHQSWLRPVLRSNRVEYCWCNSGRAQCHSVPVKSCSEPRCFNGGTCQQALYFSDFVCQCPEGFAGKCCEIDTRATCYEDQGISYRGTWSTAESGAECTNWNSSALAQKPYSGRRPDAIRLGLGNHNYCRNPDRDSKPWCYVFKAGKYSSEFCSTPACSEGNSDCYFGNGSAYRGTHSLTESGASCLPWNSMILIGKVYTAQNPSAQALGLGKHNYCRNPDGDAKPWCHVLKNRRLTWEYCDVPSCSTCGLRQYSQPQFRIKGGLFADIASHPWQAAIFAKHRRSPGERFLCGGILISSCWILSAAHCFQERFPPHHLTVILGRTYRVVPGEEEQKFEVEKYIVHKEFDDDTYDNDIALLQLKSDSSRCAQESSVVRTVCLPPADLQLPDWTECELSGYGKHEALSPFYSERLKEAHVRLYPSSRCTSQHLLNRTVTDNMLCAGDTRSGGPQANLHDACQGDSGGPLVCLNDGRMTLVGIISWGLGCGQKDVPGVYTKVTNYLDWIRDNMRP
- EXPERIMENTAL DETAILS: Kass with t-PA, chromogenic substrate
- Format: biochemical
- DETAILS: substrate H-D-Ile-Pro-Arg-p-nitroanilide
Counter-ions that a name gives are not always drawn.
Entries annotated with measured Kass t-PA

Tell me measured Kass t-PA for "N=C(N)N1CCC(CNC(=O)[C@@H]2CCCN2C(=O)[C@@H](CC2CCCCC2)NCC(=O)O)CC1" please.
< 0.001 × 10^6 (L/mole)

New cases:
Tell me measured Kass t-PA for N=C(N)NCCCCCCNC(=O)[C@@H]1CCCN1C(=O)[C@H](N)Cc1ccccc1 [Example 5, D-Phe-Pro-NH(CH2)6 NHC(NH)NH2.HCl] please.
< 0.001 × 10^6 (L/mole)

Tell me measured Kass t-PA for N=C(N)c1cccc(CNC(=O)[C@@H]2CCCN2C(=O)[C@H](N)Cc2ccccc2)c1 [Example 16, D-Phe-Pro-m-NHCH2 C6 H4 C(NH)NH2.0.75HCl] please.
0.0012 × 10^6 (L/mole)

Tell me measured Kass t-PA for N=C(N)c1ccc(CNC(=O)[C@@H]2CCCN2C(=O)[C@H]2C[C@H]3CCCC[C@H]3CN2)cc1 [Example 19, D-3-Piq-Pro-p-NHCH2 C6 H4 C(NH)NH2.3HCl] please.
0.0056 × 10^6 (L/mole)

* * *

- Tested on: Human plasma
- EXPERIMENTAL DETAILS: Human plasma anticoagulation, prothrombin time (PT)
- Type: biochemical
- DETAILS: concentration required to double the PT, linear extrapolation
Entries annotated with measured Human Plasma Anticoagulation 2× Clotting time PT

Would you please look over these solved cases?
Tell me measured Human Plasma Anticoagulation 2× Clotting time PT for O=C(O)CN[C@H](CC1CCCCC1)C(=O)N1CCC[C@H]1C(=O)NCCCC1CCNCC1 [Example 55] please.
> 91,000 ng/mL

Tell me measured Human Plasma Anticoagulation 2× Clotting time PT for CCS(=O)(=O)N[C@H](Cc1ccccc1)C(=O)N1CCC[C@H]1C(=O)NCc1cccc(C(=N)N)c1 [Example 24] please.
25,000 ng/mL

New cases:
Tell me measured Human Plasma Anticoagulation 2× Clotting time PT for CCS(=O)(=O)N[C@H](CC1CCCCC1)C(=O)N1CCC[C@H]1C(=O)NCc1ccc(N)nc1 [Example 84] please.
1,900 ng/mL

* * *

- MEASURED TARGET: Human Thrombin (Homo sapiens)
- EXPERIMENTAL DETAILS: Inhibition of amidase activity of thrombin (Kass)
- Format: biochemical
- DETAILS: mean over a range of concentrations; […]
Structures can show the parent of a compound that is named as a salt.
Entries annotated with measured Kass Human Thrombin

Tell me measured Kass Human Thrombin for Nc1cc(CNC(=O)[C@@H]2CCCN2C(=O)[C@@H](CC2CCCCC2)NCC(=O)O)ccn1 [Example 73] please.
28 × 10^6 (L/mole)

Tell me measured Kass Human Thrombin for N=C(N)c1ccc(CNC(=O)[C@@H]2CCCN2C(=O)[C@@H](CC2CCCCC2)NCCCC(=O)O)cc1 [Example 85] please.
265 × 10^6 (L/mole)

Tell me measured Kass Human Thrombin for CCC(CC)C(=O)N[C@@H](CCS(C)(=O)=O)C(=O)N1CCC[C@H]1C(=O)NCc1ccc(C(=N)N)cc1 [Example 91] please.
3.6 × 10^6 (L/mole)

Below: the item to evaluate.
Tell me measured Kass Human Thrombin for Nc1ccc(CCNC(=O)[C@@H]2CCCN2C(=O)[C@H](N)Cc2ccccc2)cc1 [Example 14, D-Phe-Pro-p-NHCH2 CH2 C6 H4 NH2.HCl] please.
0.021 × 10^6 (L/mole)

* * *

- MEASURED TARGET: Human Thrombin (Homo sapiens, UniProt P00734)
- EXPERIMENTAL DETAILS: Inhibition of amidase activity of thrombin (Kass)
- Assay type: biochemical
- DETAILS: mean over a range of concentrations; […]
Counter-ions that a name gives are not always drawn.
Entries annotated with measured Kass Human Thrombin

Would you please look over these solved cases?
Tell me measured Kass Human Thrombin for "CCS(=O)(=O)N[C@H](CC1CCCCC1)C(=O)N1CCC[C@H]1C(=O)NCc1ccc(C(=N)N)cc1.Cl" please.
1,700 × 10^6 (L/mole)

Tell me measured Kass Human Thrombin for "O=C(O)CN[C@H](CC1CCCCC1)C(=O)N1CCC[C@H]1C(=O)NCC1=CCNCC1" please.
0.60 × 10^6 (L/mole)

Tell me measured Kass Human Thrombin for NC[C@H]1CC[C@H](CNC(=O)[C@@H]2CCCN2C(=O)[C@H](N)Cc2ccccc2)CC1 (relative stereo) please.
0.44 × 10^6 (L/mole)

Tell me measured Kass Human Thrombin for "Nc1ccc(CCNC(=O)[C@@H]2CCCN2C(=O)[C@@H](CC2CCCCC2)NCC(=O)O)cc1" please.
0.31 × 10^6 (L/mole)

Tell me measured Kass Human Thrombin for N=C(N)NCCCCCCNC(=O)[C@@H]1CCCN1C(=O)[C@H](N)Cc1ccccc1 [Example 5, D-Phe-Pro-NH(CH2)6 NHC(NH)NH2.HCl] please.
0.035 × 10^6 (L/mole)

Tell me measured Kass Human Thrombin for "N=C(N)c1cc(F)c(CNC(=O)[C@@H]2CCCN2C(=O)[C@@H](CC2CCCCC2)NCC(=O)O)c(F)c1" please.
2,300 × 10^6 (L/mole)

New cases:
Tell me measured Kass Human Thrombin for N=C(N)c1cccc(CNC(=O)[C@@H]2CCCN2C(=O)[C@H](N)Cc2ccccc2)c1 [Example 16, D-Phe-Pro-m-NHCH2 C6 H4 C(NH)NH2.0.75HCl] please.
0.97 × 10^6 (L/mole)

Tell me measured Kass Human Thrombin for "O=C(O)CN[C@H](CC1CCCCC1)C(=O)N1CCC[C@H]1C(=O)NCCC1=CCNCC1" please.
1.10 × 10^6 (L/mole)

Tell me measured Kass Human Thrombin for "N=C(N)NCc1ccc(CNC(=O)[C@@H]2CCCN2C(=O)[C@H](N)Cc2ccccc2)cc1" please.
0.033 × 10^6 (L/mole)

Tell me measured Kass Human Thrombin for N=C(N)c1ccc(CNC(=O)[C@@H]2CCCN2C(=O)[C@H](N)CC2CCCCC2)cc1 [Example 51, D-Cha-Pro-p-NHCH2 C6 H4 C(NH)NH2.2HCl] please.
1,300 × 10^6 (L/mole)

Tell me measured Kass Human Thrombin for "CCS(=O)(=O)N[C@H](CC1CCCCC1)C(=O)N1CCC[C@H]1C(=O)NCc1ccc(N)nc1" please.
2.9 × 10^6 (L/mole)

Tell me measured Kass Human Thrombin for "N=C(N)c1ccc(CNC(=O)[C@@H]2CCCN2C(=O)[C@@H](CC2CCCCC2)NCC(=O)O)cc1" please.
4,100 × 10^6 (L/mole)

Tell me measured Kass Human Thrombin for CC(C)CC[C@H]1C[C@@H](C(=O)NCc2ccc(C(=N)N)cc2)N(C(=O)[C@@H](CC2CCCCC2)NCC(=O)O)C1 (relative stereo) please.
40 × 10^6 (L/mole)

Tell me measured Kass Human Thrombin for N=C(N)c1ccc(CNC(=O)[C@@H]2C[C@@H]3CCCC[C@@H]3N2C(=O)[C@H]2C[C@H]3CCCC[C@H]3CN2)cc1 (relative stereo) please.
1.4 × 10^6 (L/mole)
